The following compounds are listed with their measured IC50 values.
# System: KRAS G12V dependent lung adenocarcinoma cell line, NCI-H441
# measurement.description: Cellular pERK (Thr202/Tyr204) FRET/HTRF assay
# Format: cell-based
# recorded.conditions: Homo sapiens, NCI-H441, cellular pERK (Thr202/Tyr204) HTRF, NCI-H441 cells

| compound | system.name | reported.result |
| --- | --- | --- |
| [2H]C([2H])(Oc1nc(N2CCOC[C@@H]3[C@H]2[C@@]3([2H])F)c2cnc(-c3cccc4ccc(F)c(C#C)c34)c(F)c2n1)[C@@]12CCCN1C[C@H](F)C2 | KRAS G12V dependent lung adenocarcinoma cell line, NCI-H441 | < 50 nM |
| [2H]C1([2H])CC2(CC2)[C@]2(C([2H])([2H])Oc3nc(N4CCOC[C@H]5[C@H](F)[C@H]54)c4cnc(-c5cc(N)cc6ccc(F)c(C#C)c56)c(F)c4n3)C[C@@]([2H])(F)CN12 (single isomer, unassigned) | KRAS G12V dependent lung adenocarcinoma cell line, NCI-H441 | < 50 nM |
| C#Cc1c(F)ccc2cc(O)cc(-c3ncc4c(N5CCOC[C@H]6[C@H](F)[C@H]65)nc(OC[C@@H]5CCCN5C)nc4c3F)c12 | KRAS G12V dependent lung adenocarcinoma cell line, NCI-H441 | < 50 nM |
| C=C1CN2CCC3(CC3)[C@@]2(COc2nc(N3CCCC[C@H]4[C@H](F)[C@H]43)c3cnc(-c4cc(N)c(F)c(C)c4C(F)(F)F)c(F)c3n2)C1 | KRAS G12V dependent lung adenocarcinoma cell line, NCI-H441 | 50 to 500 nM |

Next compound, IC50 to be filled in.
Short answer please: IC50, KRAS G12V dependent lung adenocarcinoma cell line, NCI-H441, entry `Nc1cc(Cl)c(C(F)(F)F)c(-c2ncc3c(N4CCCC[C@H]5[C@H](F)[C@H]54)nc(OC[C@@]45CCCN4CC(=C(F)F)C5)nc3c2F)c1`
50 to 500 nM

---

The following molecules are listed with their measured IC50 values.
# Tested on: KRAS G12V dependent lung adenocarcinoma cell line, NCI-H441
# measurement.description: Cellular pERK (Thr202/Tyr204) FRET/HTRF assay
# Assay type: cell-based
# recorded.conditions: Homo sapiens, NCI-H441, cellular pERK (Thr202/Tyr204) HTRF, NCI-H441 cells

Bench note: what IC50 did `[2H]C([2H])([2H])Oc1c(F)cc(F)c2cccc(-c3ncc4c(N5CCCC[C@H]6[C@H](F)[C@H]65)nc(OC([2H])([2H])[C@@]56CCCN5C[C@H](F)C6)nc4c3F)c12` show?
50 to 500 nM

Bench note: what IC50 did `[2H]C([2H])(Oc1nc(N2CCOC[C@H]3[C@H](F)[C@H]32)c2c(OC)nc(-c3cccc4ccc(F)c(C#C)c34)c(F)c2n1)[C@@]12CCCN1C[C@H](F)C2` show?
500 to 10000 nM

Bench note: what IC50 did `[2H]C([2H])(Oc1nc(N2CCOC[C@@H]3[C@@H](F)[C@@H]32)c2cc(F)c(-c3cc(N)c(F)c(C)c3C(F)(F)F)c(F)c2n1)[C@@]12CCCN1C[C@H](F)C2` show?
500 to 10000 nM

Bench note: what IC50 did `[2H]C([2H])(Oc1nc(N2CCOC[C@@H]3[C@@H](Cl)[C@@H]32)c2cnc(-c3cc(N)cc4ccc(F)c(C#C)c34)c(F)c2n1)[C@@]12CCCN1[C@H](C)[C@H](F)C2` show?
500 to 10000 nM

Bench note: what IC50 did `C#Cc1c(F)ccc2cc(N)cc(-c3ncc4c(N5CCOC[C@H]6[C@H](F)[C@H]65)nc(OC[C@@]56CC[C@H](C)N5C[C@H](F)C6)nc4c3F)c12` show?
< 50 nM
